B1: LINE1-full (parent)
chain: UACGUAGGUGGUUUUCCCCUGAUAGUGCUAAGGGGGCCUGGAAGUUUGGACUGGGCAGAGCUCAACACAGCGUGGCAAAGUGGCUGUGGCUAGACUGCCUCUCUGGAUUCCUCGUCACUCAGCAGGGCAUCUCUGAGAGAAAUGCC

Variants of: B1
Test: self-cleavage, relative activity (ratio to wild type); higher = more cleavage; in vitro, sequencing; the parent is a self-cleaving ribozyme
# self-cleavage values compiled below
Output spec: single numeric token, no unit.

Assign self-cleavage to the following record: U14G C66U
0.06

Assign self-cleavage to the following record: U87A U104C
0.11

Assign self-cleavage to the following record: C18A G36A
1.12

Assign self-cleavage to the following record: U108A U143C
1.32

Assign self-cleavage to the following record: C17A A59U
0.69
